# Test system: recombinant full-length HIV-1 NC
# TEST METHOD NOTES: High-throughput screening (HTS): inhibition of NC-mediated melting of TAR RNA hairpin
# Format: biochemical
# CONDITION SUMMARY: 0.1 μM TAR, 0.8 μM NC, compound pre-incubated 37 °C 2 h; mean of three experiments; read-out: IC50, inhibition of NC-mediated melting of individual TAR RNA hairpin
# strict inequality: IC50 < 4 µM yields 1.0, everything else yields 0.0

INSERT INTO measurements (compound, target_system, class_label) VALUES
  ('COC(=O)[C@@H](CCCCN1CC(Cl)CC(C)(C)C1)N1CC(Cl)CC(C)(C)C1 (some centres unmarked) [Compound 5]', 'recombinant full-length HIV-1 NC', 0.0),
  ('CC1(C)CC(Cl)CN(CCCCCCN2CC(Cl)CC(C)(C)C2)C1 (centres unmarked) [Compound 3]', 'recombinant full-length HIV-1 NC', 1.0),
  ('CC1(C)CC(Cl)CN(CCCCCN2CC(Cl)CC(C)(C)C2)C1 (centres unmarked) [Compound 2]', 'recombinant full-length HIV-1 NC', 1.0),
  ('CC1(C)CC(Cl)CN(CCCN2CC(Cl)CC(C)(C)C2)C1 (centres unmarked) [Compound 1]', 'recombinant full-length HIV-1 NC', 0.0),
  ('COC(=O)[C@H](CCCCN1CC(Cl)CC(C)(C)C1)N1CC(Cl)CC(C)(C)C1 (some centres unmarked) [Compound 4]', 'recombinant full-length HIV-1 NC', 0.0);

# credit: paper PMC8038054
